System: 996289-038-R-J1-PDC spheroid viability
Assay: Anticancer human tumor 996289-038-R-J1-PDC patient-derived colon adenocarcinoma cell line growth inhibition [PI3K]
Conditions: second compound 0.01 µM; first compound 0.316 µM; stronger effect = lower value; spheroids with HUVEC and MSC
Text: Combinatorial screen of targeted agents with the PI3K inhibitors inavolisib, alpelisib, duvelisib, and copanlisib in multi-cell type tumor spheroids A high-throughput screen of multi-cell type tumor spheroids was designed to identify active combinations of targeted small molecules and PI3K pathway inhibitors. […] Compounds. […] If the clinical Cmax for an agent had not been determined, the highest concentration tested was 10 microM. […]
The label condition met is reserved for viability, T/C strictly under 80%; condition not met covers values equal to or above it.

Here are 8 compounds together with their reported answers.
| compound | class-assignment |
| --- | --- |
| C#Cc1c(F)ccc2cc(O)cc(-c3ncc4c(N5CC6CCC(C5)N6)nc(OCC56CCCN5CC(F)C6)nc4c3F)c12 (stereo not given) + COc1c(OCCCN2CCOCC2)ccc2c3n(c(=NC(=O)c4cnc(N)nc4)nc12)CCN3 | condition met |
| CCN1CCN(Cc2ccc(Nc3ncc(F)c(-c4cc(F)c5nc(C)n(C(C)C)c5c4)n3)nc2)CC1 + CC(Nc1ccc2c(c1)OCCn1cc(N3C(=O)OCC3C(F)F)nc1-2)C(N)=O | condition not met |
| Cn1ncc(Cl)c1-c1cc(C(=O)NC(CN)Cc2cccc(F)c2)sc1Cl (stereo not given) + COc1c(OCCCN2CCOCC2)ccc2c3n(c(=NC(=O)c4cnc(N)nc4)nc12)CCN3 | condition met |
| C#Cc1c(F)ccc2cc(O)cc(-c3ncc4c(N5CC6CCC(C5)N6)nc(OCC56CCCN5CC(F)C6)nc4c3F)c12 (stereo not given) + CC(Nc1ccc2c(c1)OCCn1cc(N3C(=O)OCC3C(F)F)nc1-2)C(N)=O | condition met |
| CC(C)NCC(C(=O)N1CCN(c2ncnc3c2C(C)CC3O)CC1)c1ccc(Cl)cc1 (stereo not given) + CC(Nc1ccc2c(c1)OCCn1cc(N3C(=O)OCC3C(F)F)nc1-2)C(N)=O | condition not met |
| CC1(C)CCC(CN2CCN(c3ccc(C(=O)NS(=O)(=O)c4ccc(NCC5CCOCC5)c([N+](=O)[O-])c4)c(Oc4cnc5[nH]ccc5c4)c3)CC2)=C(c2ccc(Cl)cc2)C1 + COc1c(OCCCN2CCOCC2)ccc2c3n(c(=NC(=O)c4cnc(N)nc4)nc12)CCN3 | condition not met |
| CC(Cn1ccc(-c2ccc(C#N)c(Cl)c2)n1)NC(=O)c1cc(C(C)O)[nH]n1 (stereo not given) + COc1c(OCCCN2CCOCC2)ccc2c3n(c(=NC(=O)c4cnc(N)nc4)nc12)CCN3 | condition not met |
| CC(Cn1ccc(-c2ccc(C#N)c(Cl)c2)n1)NC(=O)c1cc(C(C)O)[nH]n1 (stereo not given) + CC(Nc1ccc2c(c1)OCCn1cc(N3C(=O)OCC3C(F)F)nc1-2)C(N)=O | condition not met |

In the record for C=CC(=O)N1CCN(c2nc(=O)n(-c3c(C)ccnc3C(C)C)c3nc(-c4c(O)cccc4F)c(F)cc23)C(C)C1 (stereo not given) + CC(Nc1ccc2c(c1)OCCn1cc(N3C(=O)OCC3C(F)F)nc1-2)C(N)=O , is viability, T/C less than 80%?
condition not met

###

System: 996289-038-R-J1-PDC spheroid viability
Assay: Anticancer human tumor 996289-038-R-J1-PDC cell line growth inhibition [PI3K];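 also: spheroids exposed to compounds for seven days before viability read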
Details: curve of first compound; second compound 0.0316 µM; spheroids with HUVEC and MSC
Description: Combinatorial screen of targeted agents with the PI3K inhibitors inavolisib, alpelisib, duvelisib, and copanlisib in multi-cell type tumor spheroids A high-throughput screen of multi-cell type tumor spheroids was designed to identify active combinations of targeted small molecules and PI3K pathway inhibitors. […] Compounds. […] If the clinical Cmax for an agent had not been determined, the highest concentration tested was 10 microM. […]
outcome-measure: IC50 (µM)
Could you give me the number in µM? Just the number is fine.

Look up IC50: CC1(C)CCC(Nc2ncc(C(F)(F)F)c(-c3c[nH]c4c(P(C)(C)=O)c(C#N)ccc34)n2)CN1 (configuration not stated) + COc1c(OCCCN2CCOCC2)ccc2c3n(c(=NC(=O)c4cnc(N)nc4)nc12)CCN3
4.48

Another compound: CC(C)n1nc(-c2ccc3oc(N)nc3c2)c2c(N)ncnc21 + Cc1nc(NC(=O)N2CCCC2C(N)=O)sc1-c1ccnc(C(C)(C)C(F)(F)F)c1
0.0548

Origin of measurements: PubChem BioAssay AID1963965
